src = PubChem BioAssay (NCI)

Tested on: NCI-H23 lung
test-name: NCI-60 one-dose screen, 48 h
condition-parameters: 10 µM unless noted
Compounds without any hit were thinned out: in the full panel of roughly 83,000, 20% have a hit. The source made the active and inactive calls. Rule for the calls: active = growth percent below 10; inactive = the rest.
Pick from active, inactive when you respond.

Consider the following illustrative entries.
- compound: "CN(C(=O)c1ccccc1)N(C)C(=O)c1ccccc1"
  label: "inactive"
- compound: "Nc1nc(Cl)c2[nH]cnc2n1"
  label: "inactive"

Moving on to the next compound.
QUERY: In this assay, the call recorded for CC(=O)NC1(C(=O)O)CCCC1 was what?
RESULT: inactive

###

Tested on: K-562 leukemia
test-name: NCI-60 one-dose screen, 48 h
condition-parameters: 10 µM unless noted
The panel holds about 83,000 compounds, 20% with a hit somewhere; the sample as a whole holds those more often. Calls of active or inactive are those of the source. Rule for the calls: active = growth percent below 10; inactive = the rest.
Parameter call: string, one of TRUE for active, FALSE for inactive

Some solved cases for reference:
- compound: "CC(c1cc(Cl)ccc1O)c1cc(Cl)ccc1O"
  label: "FALSE"
- compound: "O=C1C2C3C=CC(O3)C2C(=O)N1Nc1ccccc1 (stereo unspecified)"
  label: "FALSE"
- compound: "C/C(=C\\CCc1ccoc1)CC/C=C(\\C)CCCN1CCC(CO)CC1"
  label: "TRUE"
- compound: "O=C(/C=C/c1ccc(O)c(O)c1)N1CCN(c2ccc(Cl)cc2)CC1"
  label: "FALSE"
- compound: "O=C(O)c1ccccc1C(=O)OC1CCCC2CCCC21 (stereo unspecified)"
  label: "FALSE"
- compound: "CC/C=C\\C=C/C(=O)N/C=C/CC1Cc2cccc(O)c2C(=O)O1 (stereo unspecified)"
  label: "FALSE"
- compound: "COc1ccc2c(c1)C(=O)c1c-2c(OCCCN(C)C)nc2cc(Br)ccc12"
  label: "FALSE"
- compound: "O=C(O)c1ccc(NC(=O)c2ccc(Nc3ccnc(C(F)(F)F)c3)cc2)cc1"
  label: "FALSE"
- compound: "CC(=O)NCCSC(=O)C(=O)SCCNC(C)=O"
  label: "FALSE"
- compound: "COC(=O)CCC1=C(C)/C(=C/c2[nH]c(-c3ccc[nH]3)cc2OC)N=C1C"
  label: "TRUE"

QUERY: Hey, what did the test say about O=C(/C=C/c1cccnc1)/C=C/c1cccnc1 ?
RESULT: TRUE

###

Test system: NCI/ADR-RES ovarian
test-name: NCI-60 one-dose screen, 48 h (100 = growth as untreated, 0 = no growth, -100 = all killed)
condition-parameters: 10 µM unless noted
The panel holds about 83,000 compounds, 20% with a hit somewhere; the sample as a whole holds those more often. Activity calls are given as the source filed them. The calls were made as follows: active = growth percent below 10; inactive = the rest.
Exercise: state measured growth for each of the compounds provided.

Consider the worked cases shown below.
- compound: "COC1CC2CCC(C)C(O)(O2)C(=O)C(=O)N2CCCCC2C(=O)OC(C(C)CC2CCC(O)C(OC)C2)CC(=O)C(C)C=C(C)C(O)C(OC)C(=O)C(C)CC(C)/C=C/C=C/C=C1C (centres undefined)"
  parameter-measured: "growth"
  measured-value: "49.1% (inactive)"
- compound: "COC(=O)CCC1=C(C)C(C)=N/C1=C\\c1[nH]c(-c2ccc[nH]2)cc1OC"
  parameter-measured: "growth"
  measured-value: "6.26% (active)"
- compound: "NCCCc1nnc(CCC(=O)c2nc3ccccc3[nH]2)o1"
  parameter-measured: "growth"
  measured-value: "97.9% (inactive)"
- compound: "COc1ccc2nc3cc(Cl)ccc3c(N3CCN(c4ccnc(Nc5ccc(F)cc5)n4)CC3)c2c1"
  parameter-measured: "growth"
  measured-value: "71.3% (inactive)"
- compound: "CC1=CC(=O)C(C(C)=Nc2ccccc2Cl)C(=O)O1 (centres undefined)"
  parameter-measured: "growth"
  measured-value: "140% (inactive)"
- compound: "c1cncc(CNc2ccccc2-c2nnc(Nc3ccc4c(c3)OCO4)o2)c1"
  parameter-measured: "growth"
  measured-value: "19.4% (inactive)"

Please supply growth for each of the following items, keeping them in order.
1. O=C1C(Cl)=C(N=Nc2c(Cl)c(O)c3ccccc3c2O)C(=O)c2ccccc21
2. O=C(/C=C/c1ccc(O)c(O)c1)N1CCN(c2ccc(Cl)cc2)CC1
3. Cc1ccc2c(c1)C(=O)/C(=C/c1ncc([N+](=O)[O-])n1C)O2

RESULT:
73.8% (inactive)
58.7% (inactive)
-3.98% (active)

###

Tested on: CCRF-CEM leukemia
test-name: NCI-60 one-dose screen, 48 h (100 = growth as untreated, 0 = no growth, -100 = all killed)
condition-parameters: 10 µM unless noted
Compounds without any hit were thinned out: in the full panel of roughly 83,000, 20% have a hit.
Give label 1 when the value for growth is at least 40%. Give label 0 when it is less.

Please review the entries below; each comes with its answer.
- molecule: "COC(=O)CCC1=C(CC(=O)OC)C(C)=N/C1=C\\c1[nH]c(-c2ccc[nH]2)cc1OC"
  label: "label 0"
- molecule: "CCOC(=O)C1=C(COCCN)NC(C)=C(C(=O)OC)C1c1ccccc1Cl (centres undefined)"
  label: "label 1"

In the following, a different molecule is considered.
QUERY: Evaluate C=C1CC[C@@H]2[C@](C)(COC(C)=O)[C@H](OC(C)=O)CC[C@@]2(C)[C@@H]1CC(Nc1ccc(S(=O)(=O)Nc2cc(C)on2)cc1)C1=CCOC1=O (some centres undefined) : growth at minimum 40%?
RESULT: label 0

###

Test system: BT-549 breast
test-name: NCI-60 one-dose screen, 48 h (100 = growth as untreated, 0 = no growth, -100 = all killed)
condition-parameters: 10 µM unless noted
This is part of a sample that, as a whole, favours compounds with a hit. Of some 83,000 tested, about 20% had one in any assay.
parameter-measured: growth (%)
Answers are plain numbers, in %.

The examples below pair each entry with its known result.
- molecule: "CCOC(=O)c1c(NC(=O)C2CCCCC2C(=O)O)sc2c1CCCC2 (configuration not stated)"
  growth [%]: 102
- molecule: "Cn1cc(-c2csc(-c3c[nH]c4ncccc34)n2)c2cc(F)cnc21"
  growth [%]: 74.1
- molecule: "O=C(/C(=C/c1ccc([N+](=O)[O-])cc1)c1ccccc1)c1ccccc1"
  growth [%]: 15.5
- molecule: "O=C(O)c1ccc(NC(=O)c2ccc(Nc3ccnc(C(F)(F)F)c3)cc2)cc1"
  growth [%]: 109
- molecule: "O=C1OCC/C1=C\\OCCCO/C=C1\\CCOC1=O"
  growth [%]: 96.9

Dear colleague, could you send me growth for each of the items below? Thanks.
1. CCCCc1nc(Cl)c(CO)n1Cc1ccc(-c2ccccc2-c2nn[nH]n2)cc1
2. COc1cc2c(cc1OCCCCCn1c(-c3ccc(OCc4ccccc4)cc3)nc3cc(N4CCOCC4)ccc31)N=C[C@@H]1CCCN1C2=O
3. C=Cc1nn2c(CCC(=O)c3nc4ccccc4[nH]3)nnc2s1
4. C[C@]12CC[C@@H]3c4ccc(O)c([N+](=O)[O-])c4CC[C@H]3[C@@H]1CC[C@@H]2NS(=O)(=O)c1cccc(Br)c1

RESULT:
[106, 1.75, 95.4, 29.3]

Hi, could you look up growth for each item in my list?
1. COc1ccc(C2CC(c3cccc(Nc4ccnc5cc(Cl)ccc45)c3)=NN2C=O)cc1 (configuration not stated)
2. Cc1cc2cn3c4cccnc4[nH]c(=O)c3c2cc1C
3. CCOc1cc(-c2ccc[nH]2)[nH]c1/C=C1\N=C(C)C(C(=O)OC)=C1C
4. CCOC(=O)C1C(=O)OC2CCCCC21 (configuration not stated)
5. CCN1C(=O)c2ccc3c4c(ccc(c24)C1=O)C(=O)N(CCCNCc1ccccc1OC)C3=O
6. O=C1Cc2cc(CCn3cncn3)c(Cl)cc2N1
7. c1ccc2c(c1)[nH]c1c2cc[n+]2cc3c(cc12)CCCC3

RESULT:
[30.9, 73.2, -43.3, 97.5, -75.9, 68, 72.7]

For each of the items listed, what is its growth?
1. Oc1[nH]c2ccccc2c1/C=c1/ccc2c(c1)N=C(c1cc(F)cc(F)c1)N=2
2. COc1cccc(CCC2C(=O)CCCC2=O)c1
3. c1csc([C@@H]2C[C@@H]3Cc4ccc5ccccc5c4N2O3)c1
4. CCCc1cccc(CCC)c1O
5. Cc1cc(N2CCOCC2)nc(N2CCOCC2)n1

RESULT:
1: 40.4; 2: 109; 3: 112; 4: 117; 5: 73.6

QUERY: Recorded growth for COc1ccc(-c2cc(Cc3cccs3)c(=O)n(Cn3ccc4ccccc43)n2)cc1 , please?
RESULT: 116

###

Test system: SK-MEL-28 melanoma
test-name: NCI-60 one-dose screen, 48 h
condition-parameters: 10 µM unless noted
About 83,000 compounds went through this panel and 20% of them were active in at least one assay; those are over-represented in the sample as a whole. Calls of active or inactive are those of the source. Rule for the calls: active = growth percent below 10; inactive = the rest.
Assign a class; possible classes are yes (1) for active, no (0) for inactive

Take a look at these entries with their results.
- compound: "COc1cc(/C=C/C(=O)Nc2ccc3c(c2)/C(=C\\c2cccn2C)C(=O)N3)cc(OC)c1OC"
  label: "no (0)"
- compound: "CO[C@H]1/C=C/O[C@@]2(C)Oc3c(C)c(O)c4c(O)c(c(/C=N/N5CCN(C)CC5)c(O)c4c3C2=O)NC(=O)/C(C)=C\\C=C\\C(C)[C@H](O)[C@@H](C)[C@@H](O)[C@@H](C)[C@@H](OC(C)=O)[C@@H]1C (stereo not given in full)"
  label: "no (0)"
- compound: "COc1ccc(-c2nn(-c3cccc(Cl)c3)cc2C2CC(c3ccccc3)=NN2C(C)=O)cc1 (stereo not given)"
  label: "no (0)"
- compound: "O=c1ccn(C2CCCO2)c(=O)[nH]1 (stereo not given)"
  label: "no (0)"

QUERY: Tell me the assay call for CCN1CCN(c2cc(-c3cn[nH]c3-c3cc(C)cc(OC)c3)nc(-c3cccnc3)n2)CC1 please.
RESULT: no (0)

QUERY: What classification did COc1ccc(-c2nn(-c3ccccc3)cc2/C=C2\SC(=S)N(CCc3ccc(O)cc3)C2=O)cc1 end up with in this test?
RESULT: no (0)

QUERY: Outcome logged for COC(=O)[C@]1(CCSC)N[C@H](c2cn(-c3ccccc3)nc2C)[C@@H]2C(=O)N(c3ccccc3)C(=O)[C@@H]21 in this assay:
RESULT: no (0)

QUERY: Hi, sorry to bother you, what did the test record for COc1ccc2[nH]cc(/C=C3/C(=O)Nc4ccc(F)cc43)c2c1 ?
RESULT: no (0)

QUERY: Please indicate how the test categorized Cc1cc(C(C)(C)c2cc(C)c(O)c(CN(C)C)c2)cc(CN(C)C)c1O .
RESULT: no (0)

QUERY: Test call, this compound: Oc1[nH]c2ccc(Cl)cc2c1/C=c1/ccc2c(c1)N=C(c1ccc(C(F)(F)F)cc1)N=2
RESULT: no (0)

QUERY: What did this assay record as the result for COc1ccc(/C=C/C(=O)Nc2cccnc2Nc2ccc(F)cc2)cc1 ?
RESULT: no (0)

QUERY: Please state the recorded outcome for this compound: COc1cc2c(cc1OCCCCCn1c(-c3ccc(OCc4ccccc4)cc3)nc3cc(N4CCOCC4)ccc31)N=C[C@@H]1CCCN1C2=O
RESULT: yes (1)

QUERY: Identify the outcome logged in this assay for the compound shown: O=NC1CC=CCC1c1ccccc1 (stereo not given)
RESULT: no (0)

QUERY: I would be grateful if you could indicate the recorded call for CCCCCCCC/C=C/CCCCCCCC1=NC(C)(C)CN1CC(C)O (stereo not given) .
RESULT: no (0)

QUERY: GET /call?item= Cc1nc(N)[nH]c(=O)c1C returns the recorded outcome of this test.
RESULT: no (0)

QUERY: What is the recorded call for this compound in the test? CCN(CC)CCOc1ccccc1-n1c(C)ccc1-c1ccccc1
RESULT: no (0)

QUERY: Could you check what this test reported for Cc1ccc2c(c1)O/C(=C\c1ccc([N+](=O)[O-])o1)C2=O ?
RESULT: no (0)

QUERY: Would you mind telling me which call this test gave CCC1=C(c2ccc(OC)cc2)C(C)Oc2cc(OC(C)=O)ccc21 (stereo not given) ?
RESULT: no (0)

QUERY: Given COc1ccc(Nc2nccc(N3CCN(c4c5ccc(Cl)cc5nc5ccc(OC)cc45)CC3)n2)cc1 , state the outcome it received in this test.
RESULT: no (0)

QUERY: So what was the verdict on Nc1nc(N)c([N+](=O)[O-])c(=O)[nH]1 in this test?
RESULT: no (0)
